Test: Metabolic stability and metabolite identity, rat liver S9 fractions
Type: in vitro ADME
Details: pH 7.4; 1 µM FFA, rat liver S9 fractions 2 mg protein/mL
Measurement name: half-life at 1 µM (min)
Numbers only, in min.

Given the entry CCNC(C)Cc1cccc(C(F)(F)F)c1 (racemic) , report its measured half-life at 1 µM.
35.4

* * *

Assay: Metabolic stability and metabolite identity, human intestinal S9 fractions
Type: in vitro ADME
Conditions: pH 7.4, 1 µM FFA, human intestine S9 fractions, outside assay detection limits
Measurement name: half-life at 1 µM

// returns reported half-life at 1 µM for input CCNC(C)Cc1cccc(C(F)(F)F)c1 (racemic) [FFA]
> 120 min

* * *

Target: CYP2D6 (Homo sapiens)
Sequence (P10635 whole entry): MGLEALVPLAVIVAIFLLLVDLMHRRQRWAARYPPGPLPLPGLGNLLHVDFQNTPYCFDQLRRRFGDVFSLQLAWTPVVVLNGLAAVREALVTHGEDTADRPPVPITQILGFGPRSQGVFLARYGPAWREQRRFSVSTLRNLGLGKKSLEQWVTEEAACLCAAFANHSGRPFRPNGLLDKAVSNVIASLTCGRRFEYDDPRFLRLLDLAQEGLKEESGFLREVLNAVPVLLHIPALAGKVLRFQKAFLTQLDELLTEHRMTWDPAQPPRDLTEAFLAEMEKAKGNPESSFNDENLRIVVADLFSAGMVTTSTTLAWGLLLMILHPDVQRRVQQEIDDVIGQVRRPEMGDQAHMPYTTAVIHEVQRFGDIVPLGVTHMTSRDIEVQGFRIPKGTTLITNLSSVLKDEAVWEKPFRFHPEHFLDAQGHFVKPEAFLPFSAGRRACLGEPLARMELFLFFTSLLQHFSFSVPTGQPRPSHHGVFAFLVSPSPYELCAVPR
Assay: in vitro
Conditions: microsomes
Measurement name: inhibition at 60 min, 1 µM (%)
Numbers only, in %.

What value of inhibition at 60 min, 1 µM has been reported for the following compound? C=C[C@H]1C[N@@]2CC[C@H]1C[C@@H]2[C@@H](O)c1ccnc2ccc(OC)cc12
37

* * *

Experiment: Metabolic stability and metabolite identity, dog liver S9 fractions
Type: in vitro ADME
Details: pH 7.4; 1 µM FFA, dog liver S9 fractions 2 mg protein/mL
Procedure: LC‐MS/MS analyses to assess metabolic stability and identify the transporter substrate were performed using an API 4000 QTRAP mass spectrometer (SCIEX, Framingham, MA) with electrospray ionization in positive mode. Chromatography was performed using an Atlantis dC18 analytical column (100 × 2.1 mm, 5 µm; Waters Corporation, Milford, MA). […] The mass transitions monitored were 232.0 > 159.0 for FFA and 348.0 > 330.0 for 1ʹ‐OH‐midazolam‐d4 internal standard. […]
Measurement name: microsomal CLint at 1 µM (µL/min/mg)
Numbers only, in µL/min/mg.

Fill blank: measured microsomal CLint at 1 µM of the compound CCNC(C)Cc1cccc(C(F)(F)F)c1 (racemic) is ____.
11.6

* * *

Experiment: Metabolic stability and metabolite identity, dog intestinal S9 fractions
Format: in vitro ADME
Conditions: intestinal S9 fractions, pH 7.4; 1 µM FFA, dog intestine S9 fractions; outside assay detection limits
Measurement name: half-life at 1 µM

Fill in the blank: the reported half-life at 1 µM of CCNC(C)Cc1cccc(C(F)(F)F)c1 (racemic) is ____.
> 2 h

* * *

Molecular target: CYP2B6 (Homo sapiens, UniProt P20813)
Construct: manually incubated in duplicate with human liver microsomes (1 mg protein/mL); tissue Sekisui XenoTech, LLC; host or cells: pooled human liver microsomes (200 donors)
Sequence (P20813 1-491): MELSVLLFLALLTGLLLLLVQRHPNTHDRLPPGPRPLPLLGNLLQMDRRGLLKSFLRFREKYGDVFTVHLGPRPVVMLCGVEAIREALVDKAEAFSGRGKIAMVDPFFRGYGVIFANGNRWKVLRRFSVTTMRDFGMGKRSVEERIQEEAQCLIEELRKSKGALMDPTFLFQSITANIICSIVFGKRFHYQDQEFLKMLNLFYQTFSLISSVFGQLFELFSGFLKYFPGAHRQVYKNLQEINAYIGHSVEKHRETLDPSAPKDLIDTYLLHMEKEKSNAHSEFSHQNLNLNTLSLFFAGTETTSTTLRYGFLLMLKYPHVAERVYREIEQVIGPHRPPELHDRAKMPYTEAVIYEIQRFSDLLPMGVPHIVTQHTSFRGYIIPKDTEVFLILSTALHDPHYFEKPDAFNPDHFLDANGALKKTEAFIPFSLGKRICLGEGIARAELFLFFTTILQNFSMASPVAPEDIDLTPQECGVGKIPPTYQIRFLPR
Experiment: Chemical inhibition of FFA metabolism in human liver microsomes, CYP2B6
Assay type: in vitro ADME
Settings: probe FFA (1 µM), demethylation to nFFA, inhibitor 30 µM, metabolism-dependent, read-out: Reduction in FFA demethylation (percent inhibition by a selective inhibitor)
Where a name gives a salt, the structure may show the parent alone.
Measurement name: inhibition at 60 min, 30 µM (%)
Answers are plain numbers, in %.

# value lookup — system CYP2B6 (Homo sapiens, UniProt P20813), readout inhibition at 60 min, 30 µM, item c1ccc(C2(N3CCCCC3)CCCCC2)cc1 [Phencyclidine, phencyclidine hydrochloride]
42

* * *

Assay: Metabolic stability and metabolite identity, rat intestinal S9 fractions
Assay type: in vitro ADME
Conditions: intestinal S9 fractions, pH 7.4; 1 µM FFA, rat intestine S9 fractions; outside assay detection limits
Measurement name: microsomal CLint at 1 µM

Form field: reported microsomal CLint at 1 µM of CCNC(C)Cc1cccc(C(F)(F)F)c1 (racemic)
< 2.9 µL/min/mg

* * *

Test: Metabolic stability and metabolite identity, rat intestinal S9 fractions
Type: in vitro ADME
Details: intestinal S9 fractions, pH 7.4; 1 µM FFA, rat intestine S9 fractions; outside assay detection limits
Measurement name: half-life at 1 µM

# query: half-life at 1 µM of entry CCNC(C)Cc1cccc(C(F)(F)F)c1 (racemic)
> 2 h

* * *

Test: Metabolic stability and metabolite identity, human liver S9 fractions
Assay type: in vitro ADME
Details: pH 7.4; 1 µM FFA, human liver S9 fractions 2 mg protein/mL; outside assay detection limits
Measurement name: half-life at 1 µM

Any idea what its half-life at 1 µM is? The compound is CCNC(C)Cc1cccc(C(F)(F)F)c1 (racemic)
> 2 h

* * *

Assay: Metabolic stability and metabolite identity, rat liver S9 fractions
Type: in vitro ADME
Settings: pH 7.4; 1 µM FFA, rat liver S9 fractions 2 mg protein/mL
Method: LC‐MS/MS analyses to assess metabolic stability and identify the transporter substrate were performed using an API 4000 QTRAP mass spectrometer (SCIEX, Framingham, MA) with electrospray ionization in positive mode. Chromatography was performed using an Atlantis dC18 analytical column (100 × 2.1 mm, 5 µm; Waters Corporation, Milford, MA). […] The mass transitions monitored were 232.0 > 159.0 for FFA and 348.0 > 330.0 for 1ʹ‐OH‐midazolam‐d4 internal standard. […]
Measurement name: microsomal CLint at 1 µM (µL/min/mg)
Answers are plain numbers, in µL/min/mg.

Request the reported microsomal CLint at 1 µM associated with CCNC(C)Cc1cccc(C(F)(F)F)c1 (racemic)
9.8
